Tested on: NCI/ADR-RES ovarian
Assay: NCI tumour cell line growth inhibition, 48 h
Endpoint Label: TGI

Known results for compounds:
Compound | Endpoint Label | Result
CSc1ccc(C2=NN(C(C)=O)C(c3cc(C)cs3)C2)cc1 (stereo unspecified) | TGI | > 100 µM
CC(=O)OCC(C)C1=C(O)C(=O)C2(C)C/C=C(/C)CC/C=C(\C)CCC(O)C(C)CCC12 (stereo unspecified) | TGI | 44 µM
COc1cc2c3c(n(C)c(=O)c2cc1OC)-c1cc2c(cc1/C3=C\CCCN1C(=O)c3ccccc3C1=O)OCO2 | TGI | > 40 µM
Cc1ccc(-c2c3c([nH]c(=O)c2C#N)-c2cc(F)ccc2OC3)cc1 | TGI | > 100 µM
CC1(O)CC(C(F)(F)F)(C(F)(F)F)OC1=O (stereo unspecified) | TGI | > 10 µM

Shift focus to the following entry.
Query: Record request: TGI value, item `NCC(=O)NS(=O)(=O)OC[C@H]1O[C@@H](n2cnc3c(N)ncnc32)[C@H](O)[C@@H]1O`
Response: 9.67 µM

====

Tested on: M14 melanoma
Test: NCI tumour cell line growth inhibition, 48 h
Listing of recorded TGI by entry.

Compound | TGI
Cn1c(N2NC(=O)C(N=Nc3ccc(S(N)(=O)=O)cc3)C2=O)nc(-c2ccco2)c(C#N)c1=O (configuration not stated) | > 50 µM

Query: Which TGI value is on record for CCCCCCCCCCCCCC(=O)OC1CC(=O)OC1CO (configuration not stated) ?
Response: 39.7 µM

====

The entries below come with measured TGI values attached.
Test system: SF-268 CNS
Assay: NCI tumour cell line growth inhibition, 48 h
Quick reminder: number only, in µM, skip the unit.

Some compounds with recorded TGI:
Compound | Target Of Assay | Endpoint Label | Quantitative Result
COCOC1/C=C/CCCC#C[C@H](C)C(=O)CC1 (some centres undefined) | SF-268 CNS | TGI | 26.5
Cn1cc(-c2cnc3ccc(NC(=O)Nc4ccc(F)c(Br)c4)cc3n2)cn1 | SF-268 CNS | TGI | 7
O=C(O)CN(CCNC(=O)OCC1c2ccccc2-c2ccccc21)CCNC(=O)OCC1c2ccccc2-c2ccccc21 | SF-268 CNS | TGI | 39.8

Okay, now this compound:
Query: # query: TGI of entry O=C(NCCOCCOCCNc1cccc2c1C(=O)N(C1CCCNC1=O)C2=O)c1cc2c(o1)C(=O)c1ccccc1C2=O (centres undefined)
Response: 6.35

====

Test system: BT-549 breast
Experiment: NCI tumour cell line growth inhibition, 48 h
Reported TGI values for a set of compounds
I only need the number, in µM, no unit after it.

Compound | Endpoint Label | Quantitative Result
CC1=C(CCCNS(C)(=O)=O)C2=C(C)C3(CC3)[C@@](C)(O)C(=O)C2=C1 | TGI | 3.89

Next item in the queue.
Query: Missing value: TGI, BT-549 breast, entry Cn1c(N2NC(=O)C(N=Nc3ccc(S(N)(=O)=O)cc3)C2=O)nc(-c2ccco2)c(C#N)c1=O (stereo not given) . Fill in?
Response: 40.6

====

Tested on: OVCAR-5 ovarian
Assay: NCI tumour cell line growth inhibition, 48 h
log10 TGI for assorted compounds
Scale: decimal log of TGI, TGI in µM.

Smiles Input | log10 TGI
CCCCCCCCCCCC(=O)CC(=O)c1c(O)cccc1O | 1.56

Query: Please look up its log10 TGI: `CC1=C(C(=O)Nc2ccc([N+](=O)[O-])cc2)C(c2ccc(N(C)C)cc2)C(C(=O)Nc2ccc([N+](=O)[O-])cc2)=C(C)N1`
Response: 1.83

Query: Need log10 TGI of `Cn1cc(-c2cnc3ccc(NC(=O)Nc4ccc(F)c(Br)c4)cc3n2)cn1` , thanks.
Response: 0.66

Query: Quick one: log10 TGI for `CC(C)(C)c1ccc2c(c1)CNCCNCc1cc(C(C)(C)C)ccc1OCC1(CO2)COc2ccc(C(C)(C)C)cc2CNCCNCc2cc(C(C)(C)C)ccc2OC1` ?
Response: 0.49

Query: Look up log10 TGI: `NCC1CCN(c2nc3ccccc3c3c2CCCC3)CC1`
Response: 1.39

Query: Bench note: what log10 TGI did `CC[CH2][Pb]([CH2]CC)([CH2]CC)[O]C(=O)C(F)(F)F` show?
Response: -0.20
